This listing pairs compounds with measured IC50.
# Tested on: Plasmodium falciparum
# experimental-protocol: Antimalarial activity against […] of Plasmodium falciparum TM91C235 after for 3 days by microdilution technique
# Type: functional, organism-based
# protocol-conditions: TM91C235, 72 h
measurement-label: IC50

CC(C)n1ccnc1/N=C(/NC(=O)C(C)(C)C)Nc1ccc(Cl)c(Cl)c1 | > 5 µg/mL
CC(C)n1ccnc1/N=C(/NC(=O)Cc1ccccc1)Nc1ccc(Cl)c(Cl)c1 | > 5 µg/mL
CC(C)C(=O)N/C(=N/c1nccn1Cc1ccccc1)Nc1ccc(Cl)c(Cl)c1 | > 2 µg/mL

----------
This listing pairs compounds with measured IC50.
# Tested on: Plasmodium falciparum
# experimental-protocol: Antimalarial activity against […] of Plasmodium falciparum TM91C235 after for 3 days by microdilution technique
# Assay type: functional, organism-based
# protocol-conditions: TM91C235, 72 h
measurement-label: IC50

N/C(=N\c1nccn1Cc1ccccc1)Nc1ccc(Cl)c(Cl)c1 | > 2 µg/mL
CC(C)n1ccnc1/N=C(/NC(=O)OC(C)(C)C)Nc1ccc(Cl)c(Cl)c1 | > 5 µg/mL
CC(C)N/C(=N\c1ncc[nH]1)Nc1ccc(Cl)c(Cl)c1 | > 5 µg/mL

----------
# experimental-protocol: Metabolic stability of the compound in human liver microsomes assessed as half life at 1 uM by LC-MS analysis
# Assay type: ADME, Microsome
This listing pairs compounds with measured half-life at 1 µM.
measurement-label: half-life at 1 µM (min)

CC(C)C(=O)N/C(=N/c1nccn1Cc1ccccc1)Nc1ccc(Cl)c(Cl)c1 | 19.7
CC(C)N/C(=N\c1nccn1CC(C)(C)C)Nc1ccc(Cl)c(Cl)c1 | 20.3

----------
This listing pairs compounds with measured half-life at 1 µM.
# experimental-protocol: Metabolic stability of the compound in human liver microsomes assessed as half life at 1 uM by LC-MS analysis
# Assay type: ADME, Microsome
measurement-label: half-life at 1 µM

CC(C)N/C(=N\c1ncc[nH]1)Nc1ccc(Cl)c(Cl)c1 | > 1 h
N/C(=N\c1nccn1Cc1ccccc1)Nc1ccc(Cl)c(Cl)c1 | > 1 h
CC(C)n1ccnc1/N=C(\N)Nc1ccc(Cl)c(Cl)c1 | > 1 h
CC(C)N1CCN=C1/N=C(/Nc1ccc(Cl)c(Cl)c1)NC(C)(C)C | > 1 h
CCC(CC)C(=O)N/C(=N/c1nccn1C(C)C)Nc1ccc(Cl)c(Cl)c1 | > 1 h

----------
# experimental-protocol: Metabolic stability of the compound in mouse liver microsomes assessed as half life at 1 uM by LC-MS analysis
# Type: ADME, Microsome
This listing pairs compounds with measured half-life at 1 µM.
measurement-label: half-life at 1 µM (min)

CC(C)N/C(=N\c1nccn1Cc1ccccc1)Nc1ccc(Cl)c(Cl)c1 | 18
CC(C)N1CCN=C1/N=C(/Nc1ccc(Cl)c(Cl)c1)N1CCCCC1 | 21.5
CC(C)N/C(=N\c1ncc[nH]1)Nc1ccc(Cl)c(Cl)c1 | 37.6
CC(C)n1ccnc1/N=C(/Nc1ccc(Cl)c(Cl)c1)NC(C)(C)C | 18.2
CC(C)n1ccnc1/N=C(/Nc1ccc(Cl)c(Cl)c1)N1CCCCC1 | 19.7
CC(C)N/C(=N\C1=NCCN1C(C)C)Nc1ccc(Cl)c(Cl)c1 | 13.6
CC(C)(C)n1ccnc1/N=C(\N)Nc1ccc(Cl)c(Cl)c1 | 48
CC(C)n1ccnc1/N=C(\N)Nc1ccc(Cl)c(Cl)c1 | 27.7
CCC(CC)C(=O)N/C(=N/c1nccn1C(C)(C)C)Nc1ccc(Cl)c(Cl)c1 | 12.5
CC(C)n1ccnc1/N=C(/NC(=O)Cc1ccccc1)Nc1ccc(Cl)c(Cl)c1 | 50.8
N/C(=N\c1nccn1Cc1ccccc1)Nc1ccc(Cl)c(Cl)c1 | 37
CC(C)(C)Cn1ccnc1/N=C(/Nc1ccc(Cl)c(Cl)c1)NC(C)(C)C | 11.7
